Overview of recorded inhibition at 0.01 µM for various compounds
- experimental_target: P-gp (ABCB1) (Homo sapiens, UniProt P08183)
- Sequence (P08183 whole entry): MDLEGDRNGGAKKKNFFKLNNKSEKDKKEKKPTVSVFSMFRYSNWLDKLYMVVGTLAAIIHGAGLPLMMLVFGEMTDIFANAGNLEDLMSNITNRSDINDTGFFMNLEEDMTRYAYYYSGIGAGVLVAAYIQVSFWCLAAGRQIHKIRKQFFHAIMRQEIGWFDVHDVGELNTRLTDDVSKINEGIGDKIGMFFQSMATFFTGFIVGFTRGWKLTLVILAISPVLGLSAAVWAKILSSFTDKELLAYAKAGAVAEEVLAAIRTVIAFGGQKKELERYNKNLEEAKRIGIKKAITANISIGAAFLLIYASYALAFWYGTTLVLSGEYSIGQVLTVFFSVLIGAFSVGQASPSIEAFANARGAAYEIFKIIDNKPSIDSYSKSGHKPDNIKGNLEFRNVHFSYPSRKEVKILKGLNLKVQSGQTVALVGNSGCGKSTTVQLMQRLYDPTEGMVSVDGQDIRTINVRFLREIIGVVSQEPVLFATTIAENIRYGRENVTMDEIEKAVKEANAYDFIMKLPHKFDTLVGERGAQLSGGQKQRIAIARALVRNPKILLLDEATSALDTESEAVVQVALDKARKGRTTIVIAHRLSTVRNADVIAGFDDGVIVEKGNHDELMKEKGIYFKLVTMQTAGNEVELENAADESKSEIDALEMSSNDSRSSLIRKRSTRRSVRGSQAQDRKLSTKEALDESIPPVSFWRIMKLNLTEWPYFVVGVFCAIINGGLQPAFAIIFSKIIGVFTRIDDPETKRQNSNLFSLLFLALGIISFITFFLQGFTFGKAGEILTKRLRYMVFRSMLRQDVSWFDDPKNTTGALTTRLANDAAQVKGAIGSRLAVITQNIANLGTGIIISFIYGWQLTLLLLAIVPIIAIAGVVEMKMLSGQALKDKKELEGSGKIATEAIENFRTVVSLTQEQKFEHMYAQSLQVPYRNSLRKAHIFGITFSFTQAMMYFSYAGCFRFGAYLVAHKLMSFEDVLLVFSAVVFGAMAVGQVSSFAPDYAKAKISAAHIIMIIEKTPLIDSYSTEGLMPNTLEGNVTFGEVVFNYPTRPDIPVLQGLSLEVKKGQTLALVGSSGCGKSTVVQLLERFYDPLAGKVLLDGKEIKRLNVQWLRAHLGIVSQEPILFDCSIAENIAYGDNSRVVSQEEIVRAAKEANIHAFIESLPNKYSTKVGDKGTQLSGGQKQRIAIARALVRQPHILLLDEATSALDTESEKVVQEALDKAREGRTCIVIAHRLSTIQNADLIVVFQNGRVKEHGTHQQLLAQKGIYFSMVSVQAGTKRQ
- test_protocol: Inhibition of P-gp in human Caco-2 cells at 0.01 uM in presence of paclitaxel relative to control
- Type: cell-based
- setup_conditions: Caco-2, probe paclitaxel
measured_property: inhibition at 0.01 µM (%)

[[record]]
molecular_string = "COc1cc(NC(=O)c2cc(=O)c3ccccc3o2)c(C(=O)Nc2ccc(C3CCN(Cc4cccc(-n5ccnc5)c4)CC3)cc2)cc1OC"
unit_tag = "%"
numeric_readout = 54

[[record]]
molecular_string = "COc1cc2c(cc1OC)CN(CCc1ccc(NC(=O)c3cc(OC)c(OC)cc3NC(=O)c3cnc4ccccc4c3)cc1)CC2"
unit_tag = "%"
numeric_readout = 0


* * *

Overview of recorded pIC50 for various compounds
- experimental_target: UniProtKB P08684
- test_protocol: Inhibition of CYP3A4 in human Hepatocyte using Luciferin-IPA as substrate
- Format: ADME, cell-based
pIC50: −log10 of the molar value.
measured_property: pIC50

[[record]]
molecular_string = "COc1cc(NC(=O)c2cnc3ccccc3c2)c(C(=O)Nc2ccc(N3CCN(Cc4cccc(-c5cccnc5)c4)CC3)cc2)cc1OC"
experimental_target = "UniProtKB P08684"
measured_property = "pIC50"
numeric_readout = 5.96

[[record]]
molecular_string = "COc1cc(NC(=O)c2cnc3ccccc3c2)c(C(=O)Nc2ccc(N3CCN(Cc4ccc5c(cnn5C)c4)CC3)cc2)cc1OC"
experimental_target = "UniProtKB P08684"
measured_property = "pIC50"
numeric_readout = 5.21

[[record]]
molecular_string = "COc1cc(NC(=O)c2cc(=O)c3ccccc3o2)c(C(=O)Nc2ccc(N3CCN(Cc4ccc5c(c4)OCO5)CC3)cc2)cc1OC"
experimental_target = "UniProtKB P08684"
measured_property = "pIC50"
numeric_readout = 5.33

[[record]]
molecular_string = "COc1cc(NC(=O)c2cc(=O)c3ccccc3o2)c(C(=O)Nc2ccc(N3CCN(Cc4cccc(-c5cccnc5)c4)CC3)cc2)cc1OC"
experimental_target = "UniProtKB P08684"
measured_property = "pIC50"
numeric_readout = 6.22

[[record]]
molecular_string = "COc1cc(NC(=O)c2cc(=O)c3ccccc3o2)c(C(=O)Nc2ccc(N3CCN(Cc4ccc5c(cnn5C)c4)CC3)cc2)cc1OC"
experimental_target = "UniProtKB P08684"
measured_property = "pIC50"
numeric_readout = 5.09

[[record]]
molecular_string = "COc1cc(NC(=O)c2cnc3ccccc3c2)c(C(=O)Nc2ccc(N3CCN(Cc4ccc5c(c4)OCO5)CC3)cc2)cc1OC"
experimental_target = "UniProtKB P08684"
measured_property = "pIC50"
numeric_readout = 5.26

[[record]]
molecular_string = "COc1cc(NC(=O)c2cnc3ccccc3c2)c(C(=O)Nc2ccc(C3CCN(Cc4cccc(-n5cncn5)c4)CC3)cc2)cc1OC"
experimental_target = "UniProtKB P08684"
measured_property = "pIC50"
numeric_readout = 5.76


* * *

- experimental_target: UniProt:P08684
- test_protocol: Inhibition of CYP3A4 (unknown origin) using Midazolam as substrate
- Assay type: ADME
pIC50: −log10 of the molar value.
measured_property: pIC50

[[record]]
molecular_string = "COc1cc(NC(=O)c2cc(=O)c3ccccc3o2)c(C(=O)Nc2ccc(C3CCN(Cc4cccc(-n5ccnc5)c4)CC3)cc2)cc1OC"
measured_property = "pIC50"
numeric_readout = 6.85


* * *

Overview of recorded half-life for various molecules
- test_protocol: Metabolic stability in mouse liver microsome assessed as half life
- Format: ADME
- setup_conditions: liver microsomes
measured_property: half-life

[[record]]
molecular_string = "COc1cc2c(cc1OC)CN(CCc1ccc(NC(=O)c3cc(OC)c(OC)cc3NC(=O)c3cnc4ccccc4c3)cc1)CC2"
result = "> 60 min"

[[record]]
molecular_string = "COc1cc(NC(=O)c2cc(=O)c3ccccc3o2)c(C(=O)Nc2ccc(C3CCN(Cc4cccc(-n5ccnc5)c4)CC3)cc2)cc1OC"
result = "37 min"


* * *

- experimental_target: Cytochrome P450 3A4 (Homo sapiens, UniProt P08684)
- Sequence (P08684 whole entry): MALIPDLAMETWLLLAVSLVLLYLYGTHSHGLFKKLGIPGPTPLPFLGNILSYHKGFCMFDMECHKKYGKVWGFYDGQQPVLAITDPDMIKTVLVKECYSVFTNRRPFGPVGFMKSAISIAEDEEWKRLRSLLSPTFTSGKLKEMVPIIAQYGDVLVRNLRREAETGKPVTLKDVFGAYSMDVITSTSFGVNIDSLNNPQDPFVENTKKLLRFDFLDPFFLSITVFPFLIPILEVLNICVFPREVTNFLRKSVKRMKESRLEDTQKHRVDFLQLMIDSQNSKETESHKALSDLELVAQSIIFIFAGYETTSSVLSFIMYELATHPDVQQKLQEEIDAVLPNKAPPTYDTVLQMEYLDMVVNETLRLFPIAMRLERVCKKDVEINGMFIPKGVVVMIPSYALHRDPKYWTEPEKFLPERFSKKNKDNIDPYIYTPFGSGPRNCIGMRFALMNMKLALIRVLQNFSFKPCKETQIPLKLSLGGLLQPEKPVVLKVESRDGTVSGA
- test_protocol: Inhibition of CYP3A4 in human liver using luciferin-IPA as substrate microsome preincubated with compound for 10 mins followed by NADPH addition and measured after 5 mins
- Assay type: ADME, microsomes
pIC50: −log10 of the molar value.
measured_property: pIC50

[[record]]
molecular_string = "COc1cc(NC(=O)c2cnc3ccccc3c2)c(C(=O)Nc2ccc(C3CCN(Cc4ccc5c(c4)OCO5)CC3)cc2)cc1OC"
experimental_target = "Cytochrome P450 3A4 (Homo sapiens, UniProt P08684)"
measured_property = "pIC50"
numeric_readout = 5.49

[[record]]
molecular_string = "COc1cc(NC(=O)c2cnc3ccccc3c2)c(C(=O)Nc2ccc(C3CCN(Cc4cccc(-n5cncn5)c4)CC3)cc2)cc1OC"
experimental_target = "Cytochrome P450 3A4 (Homo sapiens, UniProt P08684)"
measured_property = "pIC50"
numeric_readout = 6.18

[[record]]
molecular_string = "COc1cc(NC(=O)c2cnc3ccccc3c2)c(C(=O)Nc2ccc(N3CCN(Cc4ccc5c(cnn5C)c4)CC3)cc2)cc1OC"
experimental_target = "Cytochrome P450 3A4 (Homo sapiens, UniProt P08684)"
measured_property = "pIC50"
numeric_readout = 5.73

[[record]]
molecular_string = "COc1cc(NC(=O)c2cnc3ccccc3c2)c(C(=O)Nc2ccc(C3CCN(Cc4cccc(-c5ccncc5)c4)CC3)cc2)cc1OC"
experimental_target = "Cytochrome P450 3A4 (Homo sapiens, UniProt P08684)"
measured_property = "pIC50"
numeric_readout = 5.95


* * *

- experimental_target: P-gp (ABCB1) (Homo sapiens)
- test_protocol: Inhibition of P-gp in human Caco-2 cells at 0.1 uM in presence of paclitaxel relative to control
- Type: cell-based
- setup_conditions: Caco-2, probe paclitaxel
Overview of recorded inhibition at 0.1 µM for various molecules
measured_property: inhibition at 0.1 µM (%)

[[record]]
molecular_string = "COc1cc(NC(=O)c2cc(=O)c3ccccc3o2)c(C(=O)Nc2ccc(C3CCN(Cc4cccc(-n5ccnc5)c4)CC3)cc2)cc1OC"
unit_tag = "%"
numeric_readout = 89

[[record]]
molecular_string = "COc1cc2c(cc1OC)CN(CCc1ccc(NC(=O)c3cc(OC)c(OC)cc3NC(=O)c3cnc4ccccc4c3)cc1)CC2"
unit_tag = "%"
numeric_readout = 77


* * *

Overview of recorded Papp B→A for various compounds
- test_protocol: Apparent permeability of compound across basolateral to apical side in human Caco-2 cells
- Format: ADME, cell-based
measured_property: Papp B→A (×10⁻⁶ cm/s)

[[record]]
molecular_string = "COc1cc(NC(=O)c2cc(=O)c3ccccc3o2)c(C(=O)Nc2ccc(C3CCN(Cc4cccc(-n5ccnc5)c4)CC3)cc2)cc1OC"
measured_property = "Papp B→A"
censor_symbol = "<"
numeric_readout = 0.08

[[record]]
molecular_string = "COc1cc(NC(=O)c2cc(=O)c3ccccc3o2)c(C(=O)Nc2ccc(N3CCN(Cc4cccc(-c5cccnc5)c4)CC3)cc2)cc1OC"
measured_property = "Papp B→A"
censor_symbol = "<"
numeric_readout = 0.08

[[record]]
molecular_string = "COc1cc(NC(=O)c2cnc3ccccc3c2)c(C(=O)Nc2ccc(C3CCN(Cc4cccc(-n5ccnc5)c4)CC3)cc2)cc1OC"
measured_property = "Papp B→A"
censor_symbol = "="
numeric_readout = 0.4

[[record]]
molecular_string = "COc1cc(NC(=O)c2cnc3ccccc3c2)c(C(=O)Nc2ccc(N3CCN(Cc4cccc(-c5cccnc5)c4)CC3)cc2)cc1OC"
measured_property = "Papp B→A"
censor_symbol = "="
numeric_readout = 2.36

[[record]]
molecular_string = "COc1cc(NC(=O)c2cnc3ccccc3c2)c(C(=O)Nc2ccc(N3CCN(Cc4cccc(-n5ccnc5)c4)CC3)cc2)cc1OC"
measured_property = "Papp B→A"
censor_symbol = "="
numeric_readout = 0.27

[[record]]
molecular_string = "C[C@H]1O[C@@H](O[C@H]2[C@@H](O)C[C@H](O[C@H]3[C@@H](O)C[C@H](O[C@H]4CC[C@@]5(C)[C@H](CC[C@@H]6[C@@H]5C[C@@H](O)[C@]5(C)[C@@H](C7=CC(=O)OC7)CC[C@]65O)C4)O[C@@H]3C)O[C@@H]2C)C[C@H](O)[C@@H]1O"
measured_property = "Papp B→A"
censor_symbol = "="
numeric_readout = 12.1

[[record]]
molecular_string = "CC(=O)O[C@H]1C(=O)[C@@]2(C)[C@H]([C@H](OC(=O)c3ccccc3)[C@]3(O)C[C@H](OC(=O)[C@H](O)[C@@H](NC(=O)c4ccccc4)c4ccccc4)C(C)=C1C3(C)C)[C@]1(OC(C)=O)CO[C@@H]1C[C@@H]2O"
measured_property = "Papp B→A"
censor_symbol = "="
numeric_readout = 17.1


* * *

- experimental_target: UniProt:P08183
- test_protocol: Inhibition of P-gp in human MES-SA/Dx5 cells
measured_property: EC50

[[record]]
molecular_string = "COc1ccc(CN2CCN(c3ccc(NC(=O)c4ccccc4NC(=O)c4cc(=O)c5ccccc5o4)cc3)CC2)cc1OC"
experimental_target = "UniProt:P08183"
measured_property = "EC50"
result = "422 nM"

[[record]]
molecular_string = "COc1cc(NC(=O)c2cc(=O)c3ccccc3o2)c(C(=O)Nc2ccc(C3CCN(Cc4ccc5c(cnn5C)c4)CC3)cc2)cc1OC"
experimental_target = "UniProt:P08183"
measured_property = "EC50"
result = "30 nM"

[[record]]
molecular_string = "COc1cc(NC(=O)c2cnc3ccccc3c2)c(C(=O)Nc2ccc(N3CCN(Cc4cccc(-c5cccnc5)c4)CC3)cc2)cc1OC"
experimental_target = "UniProt:P08183"
measured_property = "EC50"
result = "55 nM"

[[record]]
molecular_string = "COc1cc(NC(=O)c2cc(=O)c3ccccc3o2)c(C(=O)Nc2ccc(N3CCN(Cc4cccc(-c5cccnc5)c4)CC3)cc2)cc1OC"
experimental_target = "UniProt:P08183"
measured_property = "EC50"
result = "43 nM"

[[record]]
molecular_string = "COc1cc(NC(=O)c2cc(=O)c3ccccc3o2)c(C(=O)Nc2ccc(C3CCN(Cc4ccc5c(c4)OCO5)CC3)cc2)cc1OC"
experimental_target = "UniProt:P08183"
measured_property = "EC50"
result = "51 nM"

[[record]]
molecular_string = "COc1cc(NC(=O)c2cc(=O)c3ccccc3o2)c(C(=O)Nc2ccc(C3CCN(Cc4cccc(-n5ccnc5)c4)CC3)cc2)cc1OC"
experimental_target = "UniProt:P08183"
measured_property = "EC50"
result = "28 nM"

[[record]]
molecular_string = "COc1cc(NC(=O)c2cc(=O)c3ccccc3o2)c(C(=O)Nc2ccc(N3CCN(Cc4ccc5c(cnn5C)c4)CC3)cc2)cc1OC"
experimental_target = "UniProt:P08183"
measured_property = "EC50"
result = "14 nM"

